Let's go through some GI50 measurements on Breast Cancer cell lines together.
Give just the number in nM; leave the unit off.

Consider the worked cases shown below.
COMPOUND | TARGET | U | RECORDED_NUMBER
COC(=O)Nc1nc2ccc(C(=O)c3cccs3)cc2[nH]1 [Nocodazole, reference compound] | Breast Cancer cell lines | nM | 155
COc1cc(-c2cc(-c3nc4cc(Cl)c(Cl)cc4[nH]3)[nH]n2)cc(OC)c1OC [10f] | Breast Cancer cell lines | nM | 3160
COc1ccc2[nH]c(-c3cc(-c4cc(OC)c(OC)c(OC)c4)n[nH]3)nc2c1 | Breast Cancer cell lines | nM | 1150
COc1cc(-c2cc(-c3nc4ccccc4[nH]3)[nH]n2)cc(OC)c1OC | Breast Cancer cell lines | nM | 2240
Fc1ccc2[nH]c(-c3cc(-c4ccc5c(c4)OCO5)n[nH]3)nc2c1 | Breast Cancer cell lines | nM | 3630

Task: Endpoint output: GI50 of COc1cc(-c2cc(-c3nc4cc(Cl)ccc4[nH]3)[nH]n2)cc(OC)c1OC . Value?
Result: 2570

Task: Endpoint output: GI50 of c1ccc2[nH]c(-c3cc(-c4ccc5c(c4)OCO5)n[nH]3)nc2c1 . Value?
Result: 3390

Entry source: patent US9951049B2
